Molecular target: T1, FZD9 cysteine-rich domain (CRD), MYC-tagged and GPI-anchored on CHO cells (human, UniProt O00144 35-161, GPI anchor)
T1 construct: also called FZD9 CRD; CHO-myc-FZDGPI; not shown: MYC tag and GPI anchor signal
T1 sequence: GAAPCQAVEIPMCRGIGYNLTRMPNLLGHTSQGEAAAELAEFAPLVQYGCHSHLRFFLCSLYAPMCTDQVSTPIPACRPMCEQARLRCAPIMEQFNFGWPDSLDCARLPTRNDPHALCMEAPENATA
Experiment: flow cytometry, CHO-CRD cells;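 note: flow cytometry of Fab binding to CHO cells overexpressing a Frizzled CRD, with binding defined as median fluorescence over twice that of CHO cells lacking any Frizzled CRD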

>  <binder>
Fab-2906 (Fab, V domains shown, Fab; also called Fv-2906) VH: EVQLVESGGGLVQPGGSLRLSCAASGFNFSSSSIHWVRQAPGKGLEWVAYISSSYGYTYYADSVKGRFTISADTSKNTAYLQMNSLRAEDTAVYYCARTVRGSKKPYFSGWAMDYWGQGTLVTVSS VL: DIQMTQSPSSLSASVGDRVTITCRASQSVSSAVAWYQQKPGKAPKLLIYSASSLYSGVPSRFSGSRSGTDFTLTISSLQPEDFATYYCQQWSWGFLITFGQGTKVEIK

>  <median fluorescence>
5.05

$$$$
>  <binder>
Fab-2910 (Fab, V domains shown, Fab) VH: EVQLVESGGGLVQPGGSLRLSCAASGFNISYSYMHWVRQAPGKGLEWVASIYSSSSSTSYADSVKGRFTISADTSKNTAYLQMNSLRAEDTAVYYCARGAMDYWGQGTLVTVSS VL: DIQMTQSPSSLSASVGDRVTITCRASQSVSSAVAWYQQKPGKAPKLLIYSASSLYSGVPSRFSGSRSGTDFTLTISSLQPEDFATYYCQQWYGSHLITFGQGTKVEIK

>  <median fluorescence>
2.74

$$$$
>  <binder>
Fab-2931 (Fab, V domains shown, Fab; also called Fv-2931) VH: EVQLVESGGGLVQPGGSLRLSCAASGFNLSYSSMHWVRQAPGKGLEWVAYISPYSGSTYYADSVKGRFTISADTSKNTAYLQMNSLRAEDTAVYYCARGSYWYVGGGWWVSGHGGMDYWGQGTLVTVSS VL: DIQMTQSPSSLSASVGDRVTITCRASQSVSSAVAWYQQKPGKAPKLLIYSASSLYSGVPSRFSGSRSGTDFTLTISSLQPEDFATYYCQQSSYSLITFGQGTKVEIK

>  <median fluorescence>
2.76

$$$$
>  <binder>
Fab-2916 (Fab, V domains shown, Fab) VH: EVQLVESGGGLVQPGGSLRLSCAASGFNISYSSIHWVRQAPGKGLEWVASIYPSYSYTYYADSVKGRFTISADTSKNTAYLQMNSLRAEDTAVYYCARYGYYGMDYWGQGTLVTVSS VL: DIQMTQSPSSLSASVGDRVTITCRASQSVSSAVAWYQQKPGKAPKLLIYSASSLYSGVPSRFSGSRSGTDFTLTISSLQPEDFATYYCQQWYHYPYLITFGQGTKVEIK

>  <median fluorescence>
3.52

$$$$
>  <binder>
Fab-2925 (Fab, V domains shown, Fab; also called Fv-2925) VH: EVQLVESGGGLVQPGGSLRLSCAASGFNLSYSSMHWVRQAPGKGLEWVASIYPSYGSTYYADSVKGRFTISADTSKNTAYLQMNSLRAEDTAVYYCARYGYFGLDYWGQGTLVTVSS VL: DIQMTQSPSSLSASVGDRVTITCRASQSVSSAVAWYQQKPGKAPKLLIYSASSLYSGVPSRFSGSRSGTDFTLTISSLQPEDFATYYCQQAWVYASLFTFGQGTKVEIK

>  <median fluorescence>
3.31

$$$$
